molecular target: Serine/threonine-protein kinase PLK1 (Homo sapiens, UniProt P53350)
Sequence (P53350 whole entry): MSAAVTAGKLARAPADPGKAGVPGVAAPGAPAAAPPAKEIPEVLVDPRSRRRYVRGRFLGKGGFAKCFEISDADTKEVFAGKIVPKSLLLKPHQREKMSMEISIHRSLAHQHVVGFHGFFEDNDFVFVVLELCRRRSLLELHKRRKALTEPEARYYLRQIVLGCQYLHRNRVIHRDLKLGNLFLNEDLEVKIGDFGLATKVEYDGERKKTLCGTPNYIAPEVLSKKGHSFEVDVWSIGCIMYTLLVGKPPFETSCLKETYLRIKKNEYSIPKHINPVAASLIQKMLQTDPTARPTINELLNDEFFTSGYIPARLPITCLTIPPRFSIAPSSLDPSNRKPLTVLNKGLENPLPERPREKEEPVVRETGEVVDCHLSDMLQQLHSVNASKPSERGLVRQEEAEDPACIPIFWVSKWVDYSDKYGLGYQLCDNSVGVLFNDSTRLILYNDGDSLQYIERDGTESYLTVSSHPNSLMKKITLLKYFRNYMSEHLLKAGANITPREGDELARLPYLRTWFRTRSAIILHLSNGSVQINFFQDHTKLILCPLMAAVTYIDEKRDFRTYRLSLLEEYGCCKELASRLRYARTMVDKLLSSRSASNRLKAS
Test Readout: IC50

Worked set:
{"Substance Smiles": "N=C(N)NC(=O)c1nc(Cl)c(N)nc1N", "Test Target": "Serine/threonine-protein kinase PLK1 (Homo sapiens, UniProt P53350)", "Test Result": "6.63 µM"}
{"Substance Smiles": "CC(=O)Oc1cc(OC(C)=O)c2c(C)cc(=O)oc2c1", "Test Target": "Serine/threonine-protein kinase PLK1 (Homo sapiens, UniProt P53350)", "Test Result": "> 50 µM"}
{"Substance Smiles": "CS(=O)(=O)N1CCN(c2ccccc2NC(=O)c2ccc(Br)o2)CC1", "Test Target": "Serine/threonine-protein kinase PLK1 (Homo sapiens, UniProt P53350)", "Test Result": "> 50 µM"}

Input: Given the compound NC(=O)c1cn([C@@H]2O[C@H](CO)[C@@H](O)[C@H]2O)c2ncnc(N)c12 , what is its reported IC50?
Output: 12.1 µM
